pIC50 values by entry
target_under_test: MUS81–EME1 (Homo sapiens, UniProt Q96NY9)
Construct: The MUS81–EME1 full-length expression plasmid was obtained from Stephen C; West; made in house; host or cells: Escherichia coli
Sequence (Q96NY9 1-551): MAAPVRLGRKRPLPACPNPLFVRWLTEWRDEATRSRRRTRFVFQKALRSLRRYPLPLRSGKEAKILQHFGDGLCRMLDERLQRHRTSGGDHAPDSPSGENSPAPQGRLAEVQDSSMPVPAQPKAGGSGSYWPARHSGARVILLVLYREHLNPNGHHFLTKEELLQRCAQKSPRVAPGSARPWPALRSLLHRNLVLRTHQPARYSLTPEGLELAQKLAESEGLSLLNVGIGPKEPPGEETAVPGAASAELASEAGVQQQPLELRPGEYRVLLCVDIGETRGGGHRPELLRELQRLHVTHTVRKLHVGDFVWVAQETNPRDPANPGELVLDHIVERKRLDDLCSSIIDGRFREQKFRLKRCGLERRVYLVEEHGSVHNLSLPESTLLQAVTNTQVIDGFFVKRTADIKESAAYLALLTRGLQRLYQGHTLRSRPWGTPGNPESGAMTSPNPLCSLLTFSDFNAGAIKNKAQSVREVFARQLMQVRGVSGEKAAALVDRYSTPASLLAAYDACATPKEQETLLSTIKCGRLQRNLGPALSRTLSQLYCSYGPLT
Sequence (Q96AY2 1-570 partner): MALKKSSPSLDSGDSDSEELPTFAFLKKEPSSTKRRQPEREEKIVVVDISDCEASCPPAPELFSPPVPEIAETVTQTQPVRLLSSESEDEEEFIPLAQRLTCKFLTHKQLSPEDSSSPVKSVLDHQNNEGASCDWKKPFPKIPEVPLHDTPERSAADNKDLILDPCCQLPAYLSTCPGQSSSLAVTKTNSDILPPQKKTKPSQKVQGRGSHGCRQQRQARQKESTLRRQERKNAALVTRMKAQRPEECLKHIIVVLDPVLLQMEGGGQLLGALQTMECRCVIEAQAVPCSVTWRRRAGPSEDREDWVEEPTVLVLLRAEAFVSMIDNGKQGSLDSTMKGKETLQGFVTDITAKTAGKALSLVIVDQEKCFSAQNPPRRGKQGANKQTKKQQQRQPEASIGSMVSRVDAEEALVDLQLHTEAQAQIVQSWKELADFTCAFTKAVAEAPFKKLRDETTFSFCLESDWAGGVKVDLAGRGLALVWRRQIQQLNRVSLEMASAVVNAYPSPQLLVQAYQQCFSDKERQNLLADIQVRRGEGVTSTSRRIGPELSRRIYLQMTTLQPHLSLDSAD
assay_details: Gel-based in vitro nuclease assay: cleavage of 3′flap DNA by purified MUS81–EME1
Assay type: biochemical
condition_notes: Table 1, in vitro
pIC50: −log10 of the molar value.

1. CCc1nn2cc(-c3nc4ccccc4[nH]3)nnc2c1-c1ccc(F)cc1	< 5.00

Item: Nc1c(-c2nc3ccccc3[nH]2)nnc2ccnn12 | pIC50: < 4.30

Item: Nc1c(-c2nc3ccccc3[nH]2)nnc2c(-c3ccc(F)cc3)cnn12 | pIC50: < 4.30

Item: CCc1nn2c(N)c(-c3nc4ccccc4n3Cc3ccccc3)nnc2c1-c1ccc(F)cc1 | pIC50: 5.10

Item: CCc1cc2nnc(-c3nc4ccccc4[nH]3)c(N)n2n1 | pIC50: < 5.30

Item: CCc1nn2c(O)c(-c3nc4ccccc4n3CCN3CCOCC3)nnc2c1-c1ccc(F)cc1 | pIC50: < 5.00

Item: CCc1nn2c(O)c(-c3nc4ccccc4[nH]3)nnc2c1-c1ccc(F)cc1 | pIC50: > 6.00

Item: CCc1nn2c(O)c(-c3nc4ccccc4n3CCN(C)C)nnc2c1-c1ccc(F)cc1 | pIC50: < 5.00

Item: Nc1c(-c2nc3ccccc3[nH]2)nnc2cc(-c3cccc4ccccc34)nn12 | pIC50: 5.74

Item: CCc1nn2c(O)c(-c3ncccn3)nnc2c1-c1ccc(F)cc1 | pIC50: < 4.40

Item: CCc1nn2c(C)c(-c3nc4ccccc4[nH]3)nnc2c1-c1ccc(F)cc1 | pIC50: < 5.00

Item: CCc1nn2c(N)c(C(N)=O)nnc2c1-c1ccc(F)cc1 | pIC50: < 4.30

Item: CCc1nn2c(N)c(-c3nc4ccccc4[nH]3)nnc2c1-c1ccc(OC)cc1 | pIC50: < 4.60

Item: CCc1nn2c(O)c(-c3nccn3C)nnc2c1-c1ccc(F)cc1 | pIC50: < 4.40
